target or test system: hTRPA1 (Homo sapiens, UniProt O75762)
Construct: The full length hTRPA1 was amplified by PCR with Kpn1 and Xho1 restriction enzyme sites; expressed in transfected cells; also transient transfection
Sequence (O75762 whole entry): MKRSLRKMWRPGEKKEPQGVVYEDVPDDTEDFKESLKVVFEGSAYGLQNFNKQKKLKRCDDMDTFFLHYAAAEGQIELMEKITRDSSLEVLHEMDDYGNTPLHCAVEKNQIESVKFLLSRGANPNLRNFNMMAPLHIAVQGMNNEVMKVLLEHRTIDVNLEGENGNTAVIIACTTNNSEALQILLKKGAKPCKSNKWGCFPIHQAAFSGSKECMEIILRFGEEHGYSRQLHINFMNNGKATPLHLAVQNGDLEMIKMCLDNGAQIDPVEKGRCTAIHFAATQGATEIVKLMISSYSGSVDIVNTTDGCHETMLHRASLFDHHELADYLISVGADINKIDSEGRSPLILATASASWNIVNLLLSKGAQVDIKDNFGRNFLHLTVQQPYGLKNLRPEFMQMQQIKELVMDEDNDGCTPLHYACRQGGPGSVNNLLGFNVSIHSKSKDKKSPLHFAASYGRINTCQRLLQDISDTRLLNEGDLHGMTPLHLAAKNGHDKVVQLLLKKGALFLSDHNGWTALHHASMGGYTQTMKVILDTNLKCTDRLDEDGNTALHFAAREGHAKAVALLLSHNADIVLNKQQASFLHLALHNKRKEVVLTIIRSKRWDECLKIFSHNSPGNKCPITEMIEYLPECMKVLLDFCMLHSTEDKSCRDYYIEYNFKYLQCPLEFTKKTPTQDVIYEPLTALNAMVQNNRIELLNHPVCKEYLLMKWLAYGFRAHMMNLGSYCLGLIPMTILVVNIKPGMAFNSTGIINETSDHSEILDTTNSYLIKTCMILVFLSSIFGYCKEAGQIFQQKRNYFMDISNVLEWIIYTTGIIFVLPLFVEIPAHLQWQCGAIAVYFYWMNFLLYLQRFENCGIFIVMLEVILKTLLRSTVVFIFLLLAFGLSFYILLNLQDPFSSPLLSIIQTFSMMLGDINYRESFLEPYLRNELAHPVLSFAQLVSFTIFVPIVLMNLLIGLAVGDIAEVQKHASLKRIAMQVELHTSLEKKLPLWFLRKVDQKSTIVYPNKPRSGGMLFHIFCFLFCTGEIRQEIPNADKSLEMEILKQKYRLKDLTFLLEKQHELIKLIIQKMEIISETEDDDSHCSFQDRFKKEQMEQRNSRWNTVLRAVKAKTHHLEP
measurement notes: Membrane potential dye fluorescence assay (FLIPR/FLEXstation), activation of hTRPA1 in transfected HEK293 cells
Assay type: cell-based
condition info: TRPA1 HEK293 cells, FIGS. 8C and 8D; read-out: EC50 of agonist response in TRPA1
pEC50: −log10 of the molar value.
property: pEC50

Bench note: what pEC50 did CC12CCC(C(=O)C1=O)C2(C)C (stereo not shown) show? ~3.52

====

target or test system: hTRPA1 (Homo sapiens, UniProt O75762)
Construct: The full length hTRPA1 was amplified by PCR with Kpn1 and Xho1 restriction enzyme sites; expressed in transfected cells; also transient transfection
measurement notes: Membrane potential dye fluorescence assay (FLIPR/FLEXstation), activation of hTRPA1 in transfected HEK293 cells
Type: cell-based
condition info: HEK293 cells stably transfected with hTRPA1, FMP dye, FLIPR
The label is Yes for EC50 below 50 µM and No for EC50 equal to or exceeding 50 µM.

Would you please look over these solved cases?
O=CC=Cc1ccccc1 Yes
Cc1ccc(C(C)(C)C)c(O)c1 Yes
Cc1ccccc1O No
Cc1cccc(C)c1O No

Could you now consider this next compound?
EC50 under 50 µM? Item: Cc1ccc(C)c(O)c1 No
